- Tested target: 3-oxo-5-alpha-steroid 4-dehydrogenase 2 (Homo sapiens)
- Sequence (P31213 whole entry): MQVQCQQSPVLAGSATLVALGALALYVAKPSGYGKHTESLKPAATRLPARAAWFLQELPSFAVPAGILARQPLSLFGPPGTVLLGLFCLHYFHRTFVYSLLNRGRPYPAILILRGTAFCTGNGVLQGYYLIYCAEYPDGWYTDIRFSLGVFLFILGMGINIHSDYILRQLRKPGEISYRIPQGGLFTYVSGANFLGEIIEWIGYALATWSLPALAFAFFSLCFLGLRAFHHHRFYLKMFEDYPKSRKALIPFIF
- Test summary: In vitro inhibition of recombinant human Steroid 5-alpha-reductase type 2
- Condition parameters: read-out: Ki app
pKi: −log10 of the molar value.
Measurement label: pKi

Examples with their reported pKi follow.
Compound	Value
CN1C(=O)CC[C@@H]2c3ccc(Cl)cc3CC[C@@H]21 (stereo in doubt; (+)-3)	6.00
CN1C(=O)CC[C@@H]2c3ccc(Cl)cc3CC[C@H]21 (stereo in doubt; (+)) [BEXLOSTERIDE]	6.00

[P] CN1C(=O)CC[C@@H]2c3ccc(Cl)cc3CC[C@H]21 (stereo in doubt; (-)) [BEXLOSTERIDE]
[Q] CN1C(=O)CC[C@@H]2c3ccc(Cl)cc3CC[C@@H]21 (stereo in doubt; (-)-3)
[R] CN1C(=O)CCC2=C1CCc1cc(Cl)ccc12
In: Would you mind ranking these compounds by ascending pKi? The response must list the labels following the requested ordering.
Out: Q, P, R
